Reference source for all entries: the supplement of paper PMC9732359

assay: protein stability index of a GFP-peptide fusion (yeast GPS) (PSI 1-4); higher = more stable; sorted into four equal gates, so the index is relative within each strain; conditions: pdr5∆
What protein stability index was measured for each of the following?
Numbers only.

Consider the following illustrative entries.
MSASNANDFQLTIVTCK [SRB8]; 2.41
LLVPASDLINKDLVKNN [FAS1]; 2.95
GQLGEMAKCLDNPDQGI [YCS4]; 3.49
FALPAGSPKSATSKTSE [CDC53]; 2.92
SRTDAVRCKDCGHRILL [RPC10]; 3.31

// each sequence listed below needs its protein stability index
1. GLNWLISLHENKLSGIL [ISW2]
2. YFSNKTSTGIIRCHRED [POP5]
3. CINELDNWNAPLIMATC [RPO31]
4. WLVVPTIYNLQHHVTDA [YML031W/NDC1]

Result:
1: 2.06; 2: 2.68; 3: 2.66; 4: 1.62

// each sequence listed below needs its protein stability index
1. VKVSAAAGKANKQFAKF [RPS11A]
2. YIKSATLYSVKSKEDMK [SNU114]
3. VDFDGLDIKRVGSENVE [SNF12]
4. ADVTSNIDSSAQFTFGK [YOR098C/NUP1]
5. TDLKKIIKANQLILSDV [RET1]

Result:
[2.88, 3.31, 3.32, 3.25, 2.34]

---

assay: protein stability index of a GFP-peptide fusion (yeast GPS) (PSI 1-4); higher = more stable; sorted into four equal gates, so the index is relative within each strain; settings: pdr5∆
Threshold rule: protein stability index greater than or equal to 3 is true; below that, false.

Consider the worked cases shown below.
REISNFSKGDADVLVDR [SRP72]; true
EVVQTGAKNIEITVVKP [PRE6]; true
GEANKHHWEDLQKRVIE [RPN5]; true

Problem: Textbook exercise: given the entry KIYRVGKGDDEANGATS [RPL3] , state whether its protein stability index is greater than or equal to 3.
Result: true

Problem: Textbook exercise: given the entry KIEGVATPQDAQFYLGK [RPL33A] , state whether its protein stability index is greater than or equal to 3.
Result: true

Problem: Textbook exercise: given the entry QKYNQIQKQIETIQADL [SMC2] , state whether its protein stability index is greater than or equal to 3.
Result: false

Problem: Textbook exercise: given the entry RAINKVLCTRLRLSNFF [SIR2] , state whether its protein stability index is greater than or equal to 3.
Result: false

Problem: Textbook exercise: given the entry ITKLLEINLSKIFQTTP [YCS4] , state whether its protein stability index is greater than or equal to 3.
Result: false

Problem: Textbook exercise: given the entry LSEDVNLETLVTTKDDL [RPT2] , state whether its protein stability index is greater than or equal to 3.
Result: false

Problem: Textbook exercise: given the entry SVLYQLSTSAFMEIVLE [YML031W/NDC1] , state whether its protein stability index is greater than or equal to 3.
Result: false

Problem: Textbook exercise: given the entry KATAAKKAVVKGTNGKK [RPL25] , state whether its protein stability index is greater than or equal to 3.
Result: false

Problem: Textbook exercise: given the entry FKYLLGVTDLFRHFIGI [ISW2] , state whether its protein stability index is greater than or equal to 3.
Result: false

Problem: Textbook exercise: given the entry FSRFVDQFIRHVLRGVE [YCG1] , state whether its protein stability index is greater than or equal to 3.
Result: false

Problem: Textbook exercise: given the entry DDIFIPQNMLFEGCYYT [RPC25] , state whether its protein stability index is greater than or equal to 3.
Result: false

Problem: Textbook exercise: given the entry MINGVYYNEISRDLDIS [POP6] , state whether its protein stability index is greater than or equal to 3.
Result: false

---

test: protein stability index of a GFP-peptide fusion (yeast GPS) (PSI 1-4); higher = more stable; sorted into four equal gates, so the index is relative within each strain; settings: pdr5∆
reported endpoint: protein stability index
Answers are plain numbers.

Consider the following illustrative entries.
RPSITEAMMLKEEGLQQ [MED1]; 3.65
LGGEINDNEDDDEEYDY [BRR2]; 3.34
EVSCKLLETITYVLNTW [YML103C/NUP188]; 2.35
TNEEVRNMAEEFEYDDE [CYT1]; 2.3

// each sequence listed below needs its protein stability index
1. KLIAAAEDGSRSTKDMI [SNF6]
2. SLPEELKKRYDLSYNFN [YMR129W/POM152]
3. MDNKTPVTLAKVIKVLG [RPS28A]

Result:
1: 3.69; 2: 2.67; 3: 1.77

// each sequence listed below needs its protein stability index
1. ATSSTNANAGLFNKPPS [YOR098C/NUP1]
2. LLEKANNQQRLLLKKLD [SMC3]
3. VMWGKVTRTHGNSGVVR [RPL33A]

Result:
1. 3.06
2. 2.56
3. 2.94

// each sequence listed below needs its protein stability index
1. NFKMLVLLATWNLEKWR [IRR1]
2. LEEKKKRPNNKTLEKLE [IRR1]
3. LRDYTTVPRIVQLLSKS [RPN2]

Result:
1.3
3.43
1.98

// each sequence listed below needs its protein stability index
1. TNNKKLLEKANNQQRLL [SMC3]
2. YFWHKIWRKVPGDVLDK [SNU114]
3. IVSFIVNCFHEDTELYQ [YJL039C/NUP192]
4. VPLAMGIVSVSDPQMKV [RPN1]
5. QKETQKVTKIWSKESNY [PRP28]

Result:
1.94
1.08
1.71
1.63
2.1

---

test: protein stability index of a GFP-peptide fusion (yeast GPS) (PSI 1-4); higher = more stable; sorted into four equal gates, so the index is relative within each strain; settings: pdr5∆
reported endpoint: protein stability index
One number for each entry.

KSLPLLITVMEKSPDPT [YCS4]; 1.87
FIRLPHWPLNWYLILSI [RGR1]; 1.4
RFTPGSFTNYITRSFKE [RPS0A]; 3.36

// each sequence listed below needs its protein stability index
1. VRSTIKFQLKKVLCLAV [RPL1A]
2. IKTFYWLEQFLSCVKND [NUT1]
3. HNGSHRTVAGFSNVELP [ARP7]

Result:
[1.35, 1.26, 2.83]

// each sequence listed below needs its protein stability index
1. QISIIDIWSISKKRQAE [YML031W/NDC1]
2. RMPMDFKGVIVKIVDKD [PRE1]
3. HTKFEVAIGLNGKIWVK [RRP40]
4. LRELSCCINAAFLALVD [RRP46]
5. DRAQNSYQPMYQRPMQV [SSN3]
6. LHKFLTKWGLINYQVDS [SWI3]
7. GMNNASAGLFGSKPAGG [YGL172W/NUP49]
8. QQTAKKLIPKLYRYRFD [ECM29]

Result:
1. 2.63
2. 3.11
3. 2.48
4. 2.81
5. 1.73
6. 2.71
7. 3.32
8. 2.35

---

assay: protein stability index of a GFP-peptide fusion (yeast GPS) (PSI 1-4); higher = more stable; sorted into four equal gates, so the index is relative within each strain; details: san1∆
reported endpoint: protein stability index
Answers are plain numbers.

Consider the following illustrative entries.
SLPHFPKNSKTPQSKGF [RPO31]; 2.67
MAFEASAAAAGNRNSSS [BRR2]; 2.35
NISHLLEIASSIDCLLI [SWI1]; 2.29
KKNDMNTSAKNKNGENK [SIR4]; 3.03
MDLFMSTLGDCLGIKDE [GAL11]; 3.38

// each sequence listed below needs its protein stability index
1. HDVGELFWKVKEEEGSF [PRE2]
2. EHFSHFGHIMEDFQVLR [YDL088C/ASM4]

Result:
1. 2.92
2. 2.54

// each sequence listed below needs its protein stability index
1. PFTDITVEGISKLLREH [RPB2]
2. RGYWGTNLGQPHSLATK [RPS2]

Result:
2.51
3.04

// each sequence listed below needs its protein stability index
1. VDPASAPNHSPEIDNLD [RRP6]
2. DRAQNSYQPMYQRPMQV [SSN3]
3. NWAKFTATASLGVIHKG [RPN2]
4. RHGFNRSNTGALMRCSF [RPO21]
5. KESAVISKQKSKLDYIF [SMC1]
6. WAADSVSSRVRGYTCQF [FAS1]

Result:
1. 3.25
2. 1.55
3. 1.91
4. 2.85
5. 3.05
6. 2.71

---

assay: protein stability index of a GFP-peptide fusion (yeast GPS) (PSI 1-4); higher = more stable; sorted into four equal gates, so the index is relative within each strain; conditions: pdr5∆
What protein stability index was measured for each of the following?
Answers are plain numbers.

Consider the following illustrative entries.
DESLKDEATVPNTRDAE [SWI3]; 3.31
VSMVKRAIDSLIQKGYL [CDC53]; 1.82
EKPQFKDGETTDANGKT [RPO26]; 3.3
EPKQKANAVQNNNGNSA [SRP21]; 3.24
LTPIQKKIMDETPSRLL [ITC1]; 3.39
RNFLETVELQVGLKNYD [RPL1A]; 3.08

// each sequence listed below needs its protein stability index
1. GIPTDKGPRFRKLTSQE [PRE8]
2. KTRKTYCKGKTCRKHTQ [RPL42A]
3. IPPTFDKGAVGPNNFIW [MED4]
4. KPENKTDKVSLSQPVSA [SIR4]
5. PFGVSTIFGGVDKNGAH [PRE10]
6. LEDLVFPTEIVGKRVRY [RPS7A]
7. NTLLVTGPFKVNGVPLR [RPL6B]
8. ILRNGIDYLQRNDKTLE [POP1]

Result:
1. 3.52
2. 1.69
3. 3.01
4. 2.68
5. 2.98
6. 3.52
7. 2.66
8. 3.01

Problem: What value of protein stability index has been recorded for this entry: EATAASHERFFLSQGLH [CSN12]
Result: 1.28
